This section presents compounds with their documented Wnt reporter firefly/Renilla luciferase ratio values.
- Tested on: HEK293T (UBE3A T485A transfected, BAR Wnt reporter)
- ASSAY EXPLANATION: Wnt reporter firefly/Renilla luciferase ratio relative to plate median (fold (linear ratio)); higher = more Wnt/beta-catenin reporter activation
- CONDITION INFO: concentration: 0.01 uM; 24 h
Over roughly 1,100 compounds, “Wnt reporter firefly/Renilla luciferase ratio relative to plate median” has its median near 1.1; the highest 2% begin near 1.6. This is one part of a sample in which the highest values are shown more often than they occur.
Reply with just the number.

Prompt line: What does the data say about its Wnt reporter firefly/Renilla luciferase ratio? Entry: CS/C(C)=N/OC(=O)N(C)SN(C)C(=O)O/N=C(\C)SC [Thiodicarb]
Response line: 1.53

Prompt line: What does the data say about its Wnt reporter firefly/Renilla luciferase ratio? Entry: COc1cnc(OC)n2nc(NS(=O)(=O)c3c(OCC(F)F)cccc3C(F)(F)F)nc12 [Penoxsulam]
Response line: 1.12

Prompt line: What does the data say about its Wnt reporter firefly/Renilla luciferase ratio? Entry: CCCCOC(=O)c1ccccc1C(=O)O [Monobutyl phthalate]
Response line: 1.07

Prompt line: What does the data say about its Wnt reporter firefly/Renilla luciferase ratio? Entry: CC1(C)C(C=C(Cl)Cl)C1C(=O)OC(C#N)c1cccc(Oc2ccccc2)c1 (stereo unspecified) [Cypermethrin]
Response line: 1.02

Prompt line: What does the data say about its Wnt reporter firefly/Renilla luciferase ratio? Entry: COC(=O)C(C)Oc1ccc(Oc2ccc(Cl)cc2Cl)cc1 (stereo unspecified) [Diclofop-methyl]
Response line: 1.1

Prompt line: What does the data say about its Wnt reporter firefly/Renilla luciferase ratio? Entry: CCC(C)n1c(=O)[nH]c(C)c(Br)c1=O (stereo unspecified) [Bromacil]
Response line: 0.919

* * *

This section presents compounds with their documented Wnt reporter firefly/Renilla luciferase ratio values.
- Tested on: HEK293T (UBE3A T485A transfected, BAR Wnt reporter)
- ASSAY EXPLANATION: Wnt reporter firefly/Renilla luciferase ratio relative to plate median (fold (linear ratio)); higher = more Wnt/beta-catenin reporter activation
- CONDITION INFO: concentration: 1 uM; 24 h
The full ranking holds about 1,100 compounds; the median of “Wnt reporter firefly/Renilla luciferase ratio relative to plate median” is about 1.1, and the highest 2% start at about 1.6. For the sample, the highest values were picked, then their nearest neighbours and some compounds at random.
Reply with just the number.

- COMPOUND: "CCN(CC)C(=O)SCc1ccc(Cl)cc1 [Thiobencarb]"
  MEASURED ON: "HEK293T (UBE3A T485A transfected, BAR Wnt reporter)"
  VAL: 1.52
- COMPOUND: "CC(C)(C)c1ccc(O)cc1 [4-tert-Butylphenol]"
  MEASURED ON: "HEK293T (UBE3A T485A transfected, BAR Wnt reporter)"
  VAL: 1.1
- COMPOUND: "CC1(C)C(C=C(Cl)Cl)C1C(=O)OC(C#N)c1cccc(Oc2ccccc2)c1 (configuration not stated) [Cypermethrin]"
  MEASURED ON: "HEK293T (UBE3A T485A transfected, BAR Wnt reporter)"
  VAL: 1.06
- COMPOUND: "C#CCC1=C(C)C(OC(=O)C2C(C=C(C)C)C2(C)C)CC1=O (configuration not stated) [Prallethrin]"
  MEASURED ON: "HEK293T (UBE3A T485A transfected, BAR Wnt reporter)"
  VAL: 1.04

Prompt line: Value wanted: Wnt reporter firefly/Renilla luciferase ratio (HEK293T (UBE3A T485A transfected, BAR Wnt reporter)) of entry CCOCCOC(C)=O [2-Ethoxyethyl acetate]
Response line: 0.896

Prompt line: Value wanted: Wnt reporter firefly/Renilla luciferase ratio (HEK293T (UBE3A T485A transfected, BAR Wnt reporter)) of entry COC(=O)C(C)Oc1ccc(Oc2ccc(Cl)cc2Cl)cc1 (configuration not stated) [Diclofop-methyl]
Response line: 1.98

* * *

- Test system: HEK293T (UBE3A T485A transfected, BAR Wnt reporter)
- ASSAY EXPLANATION: Wnt reporter firefly/Renilla luciferase ratio relative to plate median (fold (linear ratio)); higher = more Wnt/beta-catenin reporter activation
- CONDITION INFO: concentration: 1 uM; 24 h
The full ranking holds about 1,100 compounds; the median of “Wnt reporter firefly/Renilla luciferase ratio relative to plate median” is about 1.1, and the highest 2% start at about 1.6. The entries come from a sample that favours the highest values as a whole.
Hi, to clarify the labels: 1 covers Wnt reporter firefly/Renilla luciferase ratio from 1 upward, 0 covers anything below 1.

- COMPOUND: "CCOC1Oc2ccc(OS(C)(=O)=O)cc2C1(C)C (stereo not drawn) [Ethofumesate]"
  MEASURED ON: "HEK293T (UBE3A T485A transfected, BAR Wnt reporter)"
  ASSIGNED CLASS: 1
- COMPOUND: "CN(C)c1ccc(Cc2ccc(N(C)C)cc2)cc1"
  MEASURED ON: "HEK293T (UBE3A T485A transfected, BAR Wnt reporter)"
  ASSIGNED CLASS: 1
- COMPOUND: "CCCCc1ccccc1"
  MEASURED ON: "HEK293T (UBE3A T485A transfected, BAR Wnt reporter)"
  ASSIGNED CLASS: 1
- COMPOUND: "Cc1cccc([N+](=O)[O-])c1"
  MEASURED ON: "HEK293T (UBE3A T485A transfected, BAR Wnt reporter)"
  ASSIGNED CLASS: 1
- COMPOUND: "C[C@]12C=CC3=C4CCC(=O)C=C4CC[C@H]3[C@@H]1CC[C@@H]2O"
  MEASURED ON: "HEK293T (UBE3A T485A transfected, BAR Wnt reporter)"
  ASSIGNED CLASS: 1

Prompt line: Decide: is the reported value of Wnt reporter firefly/Renilla luciferase ratio for CCOc1nc(F)cc2nc(S(=O)(=O)Nc3c(Cl)cccc3Cl)nn12 equal to or greater than 1?
Response line: 0

Prompt line: Decide: is the reported value of Wnt reporter firefly/Renilla luciferase ratio for Cc1cc(-c2ccc(N)c(C)c2)ccc1N equal to or greater than 1?
Response line: 0

* * *

- Tested on: HEK293T (UBE3A T485A transfected, BAR Wnt reporter)
- ASSAY EXPLANATION: Wnt reporter firefly/Renilla luciferase ratio relative to plate median (fold (linear ratio)); higher = more Wnt/beta-catenin reporter activation
- CONDITION INFO: concentration: 1 uM; 24 h
Over roughly 1,100 compounds, “Wnt reporter firefly/Renilla luciferase ratio relative to plate median” has its median near 1.1; the highest 2% begin near 1.6. The sample holds the highest values, similar compounds and a random draw of the others, so the mix is not that of the screen.
Hi, to clarify the labels: label 1 covers Wnt reporter firefly/Renilla luciferase ratio from 1 upward, label 0 covers anything below 1.

- COMPOUND: "CCOc1cccc([C@]2(N3CCN(c4ccccc4)CC3)CC[C@@H](C)CC2)c1.CS(=O)(=O)O"
  MEASURED ON: "HEK293T (UBE3A T485A transfected, BAR Wnt reporter)"
  ASSIGNED CLASS: "label 0"
- COMPOUND: "CC(Oc1ccc(Cl)cc1Cl)C(=O)O (stereo unspecified)"
  MEASURED ON: "HEK293T (UBE3A T485A transfected, BAR Wnt reporter)"
  ASSIGNED CLASS: "label 1"
- COMPOUND: "O=[N+]([O-])c1ccc(Cl)c(Cl)c1"
  MEASURED ON: "HEK293T (UBE3A T485A transfected, BAR Wnt reporter)"
  ASSIGNED CLASS: "label 1"
- COMPOUND: "CN(C)C(=O)Nc1cccc(C(F)(F)F)c1"
  MEASURED ON: "HEK293T (UBE3A T485A transfected, BAR Wnt reporter)"
  ASSIGNED CLASS: "label 1"
- COMPOUND: "Nc1ccc(Cl)cc1"
  MEASURED ON: "HEK293T (UBE3A T485A transfected, BAR Wnt reporter)"
  ASSIGNED CLASS: "label 1"

Prompt line: Decide: is the reported value of Wnt reporter firefly/Renilla luciferase ratio for COc1ccc(C(c2ccc(OC)cc2)C(Cl)(Cl)Cl)cc1 equal to or greater than 1?
Response line: label 1

* * *

- Tested on: HEK293T (UBE3A T485A transfected, BAR Wnt reporter)
- ASSAY EXPLANATION: Wnt reporter firefly/Renilla luciferase ratio relative to plate median (fold (linear ratio)); higher = more Wnt/beta-catenin reporter activation
- CONDITION INFO: concentration: 1 uM; 24 h
Over roughly 1,100 compounds, “Wnt reporter firefly/Renilla luciferase ratio relative to plate median” has its median near 1.1; the highest 2% begin near 1.6. This excerpt belongs to a sample that is enriched for the highest values.
PARAMETER: Wnt reporter firefly/Renilla luciferase ratio
Reply with just the number.

- COMPOUND: "CS(=O)(=O)c1cc(C(F)(F)F)ccc1C(=O)c1cnoc1C1CC1 [Isoxaflutole]"
  VAL: 1.02
- COMPOUND: "CCC(C)n1c(=O)[nH]c(C)c(Br)c1=O (stereo not given) [Bromacil]"
  VAL: 0.995
- COMPOUND: "CCOP(=S)(OCC)Oc1cc(C)nc(C(C)C)n1 [Diazinon]"
  VAL: 1.01
- COMPOUND: "Cc1ccc([N+](=O)[O-])cc1 [4-Nitrotoluene]"
  VAL: 0.567
- COMPOUND: "CCC(C)(c1ccc(O)cc1)c1ccc(O)cc1 [Bisphenol B]"
  VAL: 0.969
- COMPOUND: "CCCCCCCc1ccc(O)cc1 [4-Heptylphenol]"
  VAL: 0.978

Prompt line: What does the data say about its Wnt reporter firefly/Renilla luciferase ratio? Entry: O=[N+]([O-])c1ccc(Cl)cc1 [1-Chloro-4-nitrobenzene]
Response line: 1.2

Prompt line: What does the data say about its Wnt reporter firefly/Renilla luciferase ratio? Entry: CCCCCCCCCc1ccc(O)cc1 [4-Nonylphenol]
Response line: 0.971
